- Tested on: CAKI-1
- assay.explanation: NCI tumour cell line growth inhibition, 48 h
Active and inactive are the calls of the source. No stated cut-off is given here; in the data, active = GI50 up to about 1.1 µM and inactive = higher.
Answer with one of the outcomes active, inactive

compound=O=C(CCC(=O)Nc1ccc(Cl)c(Cl)c1)Cc1nc2ccccc2o1 classification=inactive
compound=CC[C@@]1(O)C(=O)OCc2c1cc1n(c2=O)Cc2cc3cc4c(cc3nc2-1)OCO4 classification=active
compound="Cn1c2ccccc2c2c3c(c4c5ccccc5n(C5OC(CO)C(O)C(O)C5O)c4c21)C(=O)OC3=O (stereo not given)" classification=inactive
compound=CC(=O)Oc1cc2c(n(C)c1=O)CCC2 classification=inactive

For CCCCC1(N=[N+]=[N-])C(=O)C2C=CC=C3c4ccccc4N(C1=O)C32 (stereo not given) , which call appears in the assay record?
inactive

----------
- Test system: SK-OV-3
- assay.explanation: NCI tumour cell line growth inhibition, 48 h
Activity calls are given as the source filed them. Cut-off read from the data, not from the text of the source: active = GI50 up to about 1.1 µM and inactive = higher.
test.readout: GI50

molecule="O=C(NC(CO)Cc1ccc(Oc2cc(CC(CO)NC(=O)OCc3ccccc3)ccc2OC(=O)OCc2ccccc2)cc1)OCc1ccccc1 (stereo not given)" val="21.3 µM (inactive)"
molecule="CC(=O)NC1C(OCc2ccccc2)OC(CO)C(O)C1OCC(=O)N[C@@H](C)C(=O)N[C@H](CCC(=O)NCCCNc1ccc([N+](=O)[O-])c2[nH]c3ccccc3c(=O)c12)C(N)=O (stereo not given in full)" val="> 100 µM (inactive)"
molecule=CNC(=O)N(C)C(=O)c1ccccc1C(=O)N(C)C(=O)NC val="> 10 µM (inactive)"
molecule="CC(C)(C)OC(=O)NC1CCCC1=O (stereo not given)" val="> 100 µM (inactive)"

Need GI50, item COc1ccc2oc(=O)c(-c3nc4ccccc4s3)cc2c1
13.6 µM (inactive)

----------
- Tested on: LXFL 529
- assay.explanation: NCI tumour cell line growth inhibition, 48 h
Activity calls are given as the source filed them. Rule as the data show it: active = GI50 up to about 1.1 µM and inactive = higher.
Permitted responses: active, inactive

compound=O=C(OCCOCBr)c1ccccc1 classification=inactive

Name the outcome recorded for COC(=O)/C([Se]c1c(C)cc(C)cc1C)=C(\[Se]c1c(C)cc(C)cc1C)C(=O)OC in the assay.
inactive

Name the outcome recorded for N=C(NNS(=O)(=O)c1ccccc1)Oc1ccc(Cl)cc1 in the assay.
inactive

Which result was noted for this compound in the test: COC(=O)[C@@]1(C)/C(=N/NS(=O)(=O)c2ccc(C)cc2)CCC[C@@H]1C
inactive

Recorded test call requested for CCCCNC1=C2C(=O)NN=C2CO1
inactive

// return assay outcome for COc1ccc2c(c1)CC[C@@H]1C2CC[C@]2(C)C(=O)N(N)C(=O)CC12 (some centres undefined)
inactive

Assay outcome for C=C(c1ccccc1)C1(O)CCCCC1N (centres undefined) : what was it?
inactive

Answer briefly: the call reported for C/C(=N/NS(=O)(=O)c1ccc([N+](=O)[O-])cc1)c1cccc[n+]1[O-] in this assay.
inactive

Outcome? CC(C)(C)OC(=O)NC1CCCC1=O (centres undefined)
inactive

Hello, I am checking results. What call was entered for CC1(c2cccc3ccccc23)OC(=O)c2ccccc21 (centres undefined) ?
inactive

Identify the outcome logged in this assay for the compound shown: CCC1(O)C(=O)OCc2c1cc1n(c2=O)Cc2cc3cc4c(cc3nc2-1)OCO4 (centres undefined)
active

How did this test come out for [O-][N+]1=C(c2ccccc2)COc2ccccc21 ?
inactive

----------
- Tested on: DLD-1
- assay.explanation: NCI tumour cell line growth inhibition, 48 h
Activity calls are given as the source filed them. Rule as the data show it: active = GI50 up to about 1.1 µM and inactive = higher.
Entry note: the call must match one of yes (1) = active, no (0) = inactive

The following compounds have reported results that may help.
compound="CC(=O)c1ccccc1NC(=O)C(=O)C(C(=O)c1ccc2ccccc2c1)C1OC(=O)c2ccccc21 (configuration not stated)" classification="no (0)"
compound=O=C(O)CCNS(=O)(=O)c1ccc2ccccc2c1 classification="no (0)"
compound=Clc1ccc2c(NCCCCCCNc3ccnc4cc(Cl)ccc34)ccnc2c1 classification="no (0)"
compound="CC(C)N(C(=O)C12C3C4C5C3C1(C(=O)N(C(C)C)C(C)C)C5(C#N)C42)C(C)C (configuration not stated)" classification="no (0)"
compound="NC1=NCN(C2OC(CO)C(O)C2O)C(=O)N1 (configuration not stated)" classification="no (0)"
compound="CCC1(O)C(=O)OCc2c1cc1n(c2=O)Cc2cc3cc4c(cc3nc2-1)OCO4 (configuration not stated)" classification="yes (1)"
compound="NCC1(N2CCOCC2)C2CCCC21CO (configuration not stated)" classification="no (0)"
compound=[O-][N+]1=C(c2ccccc2)COc2ccccc21 classification="no (0)"
compound="CC(=O)O[C@]1(C)CCC2C(C)C(=O)OC2C2C(C)[C@@H](O)CC21 (some centres not stated)" classification="no (0)"
compound=CN(C)/N=N/c1ccc([N+](=O)[O-])cc1C(N)=O classification="no (0)"

Kindly provide the recorded test outcome for the following compound: CC(C)(C)OC(=O)NCC(=O)OCc1ccccc1
no (0)

Per the assay record, what outcome was assigned to CCCc1nc(N)nc(C(=O)Nc2cccc(C(F)(F)F)c2)c1CC ?
no (0)

Record lookup: outcome of this test for COC1=C(C)C(=O)C2=C(C1=O)C1C3CC4=C(C(=O)C(OC)=C(C)C4=O)C(CNC(=O)C(C)=O)N3C(C#N)C(C2)N1C (configuration not stated) ?
yes (1)

Please state the recorded outcome for this compound: COC(=O)[C@@]1(C)/C(=N/NS(=O)(=O)c2ccc(C)cc2)CCC[C@@H]1C
no (0)

Hey, what did the test say about CC(C)C(Nc1c2ccccc2[n+](C)c2ccccc12)C(=O)O (configuration not stated) ?
no (0)

----------
- System: ACHN
- assay.explanation: NCI tumour cell line growth inhibition, 48 h
The source made the active and inactive calls. Rule as the data show it: active = GI50 up to about 1.1 µM and inactive = higher.
Just give me one of these, please: active, inactive

These recorded examples may help you get a feel for the data.
compound=CCOC(=O)c1[nH]cc(C)c1-c1ccc2c(-c3ccccc3)nc3ccccc3n12 classification=inactive
compound="C=C(c1ccccc1)C1(O)CCCCC1N (stereo not drawn)" classification=inactive
compound=O=[N+]([O-])/C=C/c1cc(Cl)c(/C=C/[N+](=O)[O-])cc1Cl classification=inactive

Just curious, what result did Nc1ncc2c(n1)-c1ccccc1OC2N1CCCC1 (stereo not drawn) get here?
inactive

Tell me the assay call for C=CCN1CCC2(CC1)NC(=O)c1ccccc1O2 please.
inactive

Dear all, I need the recorded test outcome for O=c1[nH]n2c(=O)cc[nH]c2c1-c1nnns1 , thank you.
inactive

Lab log entry: CCN(CCCl)CCCCNc1c2ccccc2nc2ccc(OC)cc12 — outcome as called in the assay?
active

Give the logged outcome of this assay for the following compound: CC(=O)N(C)c1ccc(/N=C/N(C)C)cc1
inactive

Given CNC1=C(C)C(=O)C(C)=C(C(C)(C)CC(=O)n2cc(F)c(=O)[nH]c2=O)C1=O , state the outcome it received in this test.
inactive

----------
- Test system: RPMI-8226
- assay.explanation: NCI tumour cell line growth inhibition, 48 h
Active and inactive are the calls of the source. Rule as the data show it: active = GI50 up to about 1.1 µM and inactive = higher.
Valid outcomes are listed here; reply with one: True (active), False (inactive)

Solved entries:
compound=Cc1ccc(/N=C2\C(=O)C3=C(OC(C)(C)CC3)c3ccccc32)cc1 study_target=RPMI-8226 classification=True
compound=CCCCCCCCCCCOc1ccc(C(=O)C(=O)c2ccc(OCCCCCCCCCCC)c(OCCCCCCCCCCC)c2)cc1OCCCCCCCCCCC study_target=RPMI-8226 classification=False
compound=O=C1C[C@H](c2ccccc2)O[C@@H](c2ccccc2)C1 study_target=RPMI-8226 classification=False

Now for a further compound.
Tell me the assay call for COc1ccc(CC2C3=C(CCN2C(=O)C2CCC2)CC2(CC3)OCCO2)cc1O (stereo not drawn) please.
False

----------
- Test system: HOP-92
- assay.explanation: NCI tumour cell line growth inhibition, 48 h
Active and inactive are the calls of the source. Cut-off read from the data, not from the text of the source: active = GI50 up to about 1.1 µM and inactive = higher.
test.readout: GI50

For orientation, consider the following solved cases.
compound="NC1=NCN(C2OC(CO)C(O)C2O)C(=O)N1 (configuration not stated)" val="391 µM (inactive)"
compound=C/C(=N/NS(=O)(=O)c1ccc([N+](=O)[O-])cc1)c1cccc[n+]1[O-] val="> 100 µM (inactive)"
compound="COC(CC1(/C=C/O[Si](C(C)C)(C(C)C)C(C)C)C(=O)N(C)c2ccccc21)OC (configuration not stated)" val="> 100 µM (inactive)"
compound=O=c1[nH]c(=O)n(C/C=C/CBr)nc1Br val="13.4 µM (inactive)"
compound="Cn1c2ccccc2c2c3c(c4c5ccccc5n(C5OC(CO)C(O)C(O)C5O)c4c21)C(=O)OC3=O (configuration not stated)" val="> 100 µM (inactive)"
compound="CCOC(=O)c1ccc2nc3n(c2c1)C(c1c(F)cccc1F)SC3 (configuration not stated)" val="> 100 µM (inactive)"

Proceeding to the next compound to report its GI50.
Find GI50 (HOP-92) for the entry CC1(C=O)CC(CCc2ccccc2)NC1Cc1ccc(O)cc1 (configuration not stated)
15.3 µM (inactive)
